# experimental-details: xn = mol fraction of the nth substance listed, in the solute-free solvent
# measurement-conditions: 318.15 K; x2 = 0.1
The threshold is inclusive: solubility (g/100 g solution) of exactly 10 counts as met; values below receive not met.

Determine whether measured solubility (g/100 g solution) meets or exceeds 10 for Cc1c(Br)c(=O)n(C2CCCC2)c2nc(Cl)ncc12 + C1CCOC1 + CCO not met

Determine whether measured solubility (g/100 g solution) meets or exceeds 10 for CCOc1ccccc1C(N)=O + CCO + CC#N met

Determine whether measured solubility (g/100 g solution) meets or exceeds 10 for CCOc1ccccc1C(N)=O + CO + CC#N met

Determine whether measured solubility (g/100 g solution) meets or exceeds 10 for Cc1c(Br)c(=O)n(C2CCCC2)c2nc(Cl)ncc12 + CC1=CC(=O)CC(C)(C)C1 + CC(C)O not met

Determine whether measured solubility (g/100 g solution) meets or exceeds 10 for Cc1c(Br)c(=O)n(C2CCCC2)c2nc(Cl)ncc12 + CCOC(C)=O + CCO not met

---

Would you mind telling me the reported solubility (g/100 g solution) of each entry?
# experimental-details: xn = mol fraction of the nth substance listed, in the solute-free solvent
# measurement-conditions: 298.15 K; x2 = 0.7
Respond numerically, and do not add a unit to the figure.

Data request, read-out solubility (g/100 g solution), for CCOc1ccccc1C(N)=O + CO + CC#N 11.1

Data request, read-out solubility (g/100 g solution), for Cc1ncc(CO)c(CO)c1O.Cl + O + CCCO 9.8

Data request, read-out solubility (g/100 g solution), for Cc1c(Br)c(=O)n(C2CCCC2)c2nc(Cl)ncc12 + C1CCOC1 + CCO 5.68

Data request, read-out solubility (g/100 g solution), for Cc1ncc(CO)c(CO)c1O.Cl + O + CC#N 13.4

Data request, read-out solubility (g/100 g solution), for Cc1c(Br)c(=O)n(C2CCCC2)c2nc(Cl)ncc12 + CC1=CC(=O)CC(C)(C)C1 + CC(C)O 1.37

Data request, read-out solubility (g/100 g solution), for Cc1ncc(CO)c(CO)c1O.Cl + O + CC(C)O 8.29

---

# experimental-details: xn = mol fraction of the nth substance listed, in the solute-free solvent
# measurement-conditions: 278.15 K; x2 = 0.1666
Would you mind telling me the reported solubility (g/100 g solution) of each entry?
Respond numerically, and do not add a unit to the figure.

Data request, read-out solubility (g/100 g solution), for Nc1nc2ccc(OC(F)(F)F)cc2s1 + CCCO + O 19.6

Data request, read-out solubility (g/100 g solution), for c1ccc(-c2ccc(C(c3ccccc3)n3ccnc3)cc2)cc1 (centres undefined) + CCCO + O 0.308

Data request, read-out solubility (g/100 g solution), for CC1CCC2C(C)C(OC(=O)CCC(=O)O)OC3OC4(C)CCC1C32OO4 (centres undefined) + CC(C)O + O 0.786

Data request, read-out solubility (g/100 g solution), for c1ccc(-c2ccc(C(c3ccccc3)n3ccnc3)cc2)cc1 (centres undefined) + CC(C)O + O 0.29

---

# experimental-details: xn = mol fraction of the nth substance listed, in the solute-free solvent
# measurement-conditions: 293.15 K; x2 = 0.8
Would you mind telling me the reported solubility (g/100 g solution) of each entry?
Respond numerically, and do not add a unit to the figure.

Data request, read-out solubility (g/100 g solution), for CCOC(=O)OC1=C(c2cc(C)ccc2C)C(=O)NC12CCC(OC)CC2 (stereo not drawn) + CCO + O 6.19

Data request, read-out solubility (g/100 g solution), for CCOC(=O)OC1=C(c2cc(C)ccc2C)C(=O)NC12CCC(OC)CC2 (stereo not drawn) + CC(C)O + O 5.03

Data request, read-out solubility (g/100 g solution), for Cc1c(Br)c(=O)n(C2CCCC2)c2nc(Cl)ncc12 + C1CCOC1 + CCO 5.29

Data request, read-out solubility (g/100 g solution), for Cc1c(Br)c(=O)n(C2CCCC2)c2nc(Cl)ncc12 + CCOC(C)=O + CCO 0.817

Data request, read-out solubility (g/100 g solution), for COC(=O)C(N)CS.Cl (stereo not drawn) + CCO + ClCCl 7.47

Data request, read-out solubility (g/100 g solution), for CCOc1ccccc1C(N)=O + CC(C)O + CC#N 4.2

Data request, read-out solubility (g/100 g solution), for Cc1ncc(CO)c(CO)c1O.Cl + O + CC#N 15.2

Data request, read-out solubility (g/100 g solution), for CCOC(=O)OC1=C(c2cc(C)ccc2C)C(=O)NC12CCC(OC)CC2 (stereo not drawn) + CO + O 6.38

Data request, read-out solubility (g/100 g solution), for Cl.NC(Cc1ccccc1)C(=O)OCc1ccccc1 (stereo not drawn) + CO + CC(C)=O 11

Data request, read-out solubility (g/100 g solution), for CCOc1ccccc1C(N)=O + CO + CC#N 8.83

Data request, read-out solubility (g/100 g solution), for Cl.N=C(N)NC(=N)N1CCOCC1 + O + CC(C)O 30.8

Data request, read-out solubility (g/100 g solution), for N#CCNC(=O)c1cnccc1C(F)(F)F + CCOC(C)=O + CCO 5.77

Data request, read-out solubility (g/100 g solution), for CCOC(=O)OC1=C(c2cc(C)ccc2C)C(=O)NC12CCC(OC)CC2 (stereo not drawn) + CC(C)=O + O 14.8

Data request, read-out solubility (g/100 g solution), for CCOc1ccccc1C(N)=O + CCO + CC#N 5.58

Data request, read-out solubility (g/100 g solution), for O=C(NC(C(=O)O)c1ccccc1)OCc1ccccc1 (stereo not drawn) + CCO + O 17.7

Data request, read-out solubility (g/100 g solution), for Cc1ncc(CO)c(CO)c1O.Cl + O + CCCO 10.7

Data request, read-out solubility (g/100 g solution), for Cc1ncc(CO)c(CO)c1O.Cl + O + CC(C)O 9.29

Data request, read-out solubility (g/100 g solution), for Cc1c(Br)c(=O)n(C2CCCC2)c2nc(Cl)ncc12 + CC1=CC(=O)CC(C)(C)C1 + CC(C)O 1.08

---

Would you mind telling me the reported solubility (g/100 g solution) of each entry?
# experimental-details: xn = mol fraction of the nth substance listed, in the solute-free solvent
# measurement-conditions: 288.15 K; x2 = 0.1666
Respond numerically, and do not add a unit to the figure.

Data request, read-out solubility (g/100 g solution), for c1ccc(-c2ccc(C(c3ccccc3)n3ccnc3)cc2)cc1 (centres undefined) + CC(C)O + O 0.525

Data request, read-out solubility (g/100 g solution), for Nc1nc2ccc(OC(F)(F)F)cc2s1 + CCCO + O 22.3

Data request, read-out solubility (g/100 g solution), for CC1CCC2C(C)C(OC(=O)CCC(=O)O)OC3OC4(C)CCC1C32OO4 (centres undefined) + CC(C)O + O 1.18

Data request, read-out solubility (g/100 g solution), for c1ccc(-c2ccc(C(c3ccccc3)n3ccnc3)cc2)cc1 (centres undefined) + CCCO + O 0.558

---

# experimental-details: xn = mol fraction of the nth substance listed, in the solute-free solvent
# measurement-conditions: 293.15 K; x2 = 0.7
Would you mind telling me the reported solubility (g/100 g solution) of each entry?

Data request, read-out solubility (g/100 g solution), for Cl.NC(Cc1ccccc1)C(=O)OCc1ccccc1 (stereo not drawn) + CO + CC(C)=O 8.94

Data request, read-out solubility (g/100 g solution), for Cl.N=C(N)NC(=N)N1CCOCC1 + O + CC(C)O 23.9

Data request, read-out solubility (g/100 g solution), for Cc1ncc(CO)c(CO)c1O.Cl + O + CC#N 11.8

Data request, read-out solubility (g/100 g solution), for Cc1c(Br)c(=O)n(C2CCCC2)c2nc(Cl)ncc12 + CC1=CC(=O)CC(C)(C)C1 + CC(C)O 1.01

Data request, read-out solubility (g/100 g solution), for Cc1c(Br)c(=O)n(C2CCCC2)c2nc(Cl)ncc12 + C1CCOC1 + CCO 4.83

Data request, read-out solubility (g/100 g solution), for COC(=O)C(N)CS.Cl (stereo not drawn) + CCO + ClCCl 6.62

Data request, read-out solubility (g/100 g solution), for Cc1ncc(CO)c(CO)c1O.Cl + O + CCCO 8.27

Data request, read-out solubility (g/100 g solution), for CCOc1ccccc1C(N)=O + CO + CC#N 8.99

Data request, read-out solubility (g/100 g solution), for Cc1ncc(CO)c(CO)c1O.Cl + O + CC(C)O 6.76

Data request, read-out solubility (g/100 g solution), for Cc1c(Br)c(=O)n(C2CCCC2)c2nc(Cl)ncc12 + CCOC(C)=O + CCO 0.756

Data request, read-out solubility (g/100 g solution), for CCOc1ccccc1C(N)=O + CCO + CC#N 6.09

Data request, read-out solubility (g/100 g solution), for O=C(NC(C(=O)O)c1ccccc1)OCc1ccccc1 (stereo not drawn) + CCO + O 13.4

Data request, read-out solubility (g/100 g solution), for CCOc1ccccc1C(N)=O + CC(C)O + CC#N 4.81
